Taken from ChEMBL document CHEMBL5518181.

experiment: Hydrophobicity of compound assessed as %MeCN at peak elution by RP-HPLC analysis; type: physicochemical

structure	MeCN percentage at peak elution
CC[C@H](C)[C@@H](NC(=O)[C@@H](NC(=O)[C@H](CCC(=O)O)NC(=O)[C@H](Cc1ccccc1)NC(=O)[C@@H](CCN)NC(=O)[C@H](C)NC(=O)[C@H](CO)NC(=O)[C@@H](Cc1c[nH]c2ccccc12)NC(=O)[C@@H](CO)NC(=O)CNC(=O)[C@@H](CCN)NC(=O)[C@H](NC(=O)[C@H](C)N)C(C)C)C(C)C)C(=O)N[C@@H](C)C(=O)O	44.3%
CC[C@H](C)[C@@H](NC(=O)[C@@H](NC(=O)[C@H](CCC(=O)O)NC(=O)[C@H](Cc1ccccc1)NC(=O)[C@@H](CCN)NC(=O)[C@H](CCN)NC(=O)[C@H](CO)NC(=O)[C@@H](Cc1c[nH]c2ccccc12)NC(=O)[C@@H](CO)NC(=O)CNC(=O)[C@@H](CCN)NC(=O)[C@H](NC(=O)[C@@H]1CCCN1)C(C)C)C(C)C)C(=O)N[C@@H](C)C(=O)O	41.9%
CC[C@H](C)[C@@H](NC(=O)[C@@H](NC(=O)[C@H](CCC(=O)O)NC(=O)[C@H](Cc1ccccc1)NC(=O)[C@@H](CCN)NC(=O)[C@H](CCN)NC(=O)[C@H](CO)NC(=O)[C@@H](Cc1c[nH]c2ccccc12)NC(=O)[C@@H](CO)NC(=O)CNC(=O)[C@@H](CCN)NC(=O)[C@H](NC(=O)[C@@H](C)N)C(C)C)C(C)C)C(=O)N[C@@H](C)C(=O)O	39.6%

----------
test: Binding affinity to gram negative bacterial lipid II assessed as dissociation constant by ITC analysis; design: species or system Bacteria
Measured Kd values are reported for all entries that follow.
recorded_endpoint: Kd (nM)

structure	result
CC[C@H](C)[C@@H](NC(=O)[C@@H](NC(=O)[C@H](CCC(=O)O)NC(=O)[C@H](Cc1ccccc1)NC(=O)[C@@H](CCN)NC(=O)[C@H](CCN)NC(=O)[C@H](CO)NC(=O)[C@@H](Cc1c[nH]c2ccccc12)NC(=O)[C@@H](CO)NC(=O)CNC(=O)[C@@H](CCN)NC(=O)[C@H](NC(=O)[C@H](C)N)C(C)C)C(C)(C)C)C(=O)N[C@@H](C)C(N)=O	2150
CC[C@@H](C)[C@@H](NC(=O)[C@@H](NC(=O)[C@H](CCC(=O)O)NC(=O)[C@H](Cc1ccccc1)NC(=O)[C@@H](CCN)NC(=O)[C@H](CCN)NC(=O)[C@H](CO)NC(=O)[C@@H](Cc1c[nH]c2ccccc12)NC(=O)[C@@H](CO)NC(=O)CNC(=O)[C@@H](CCN)NC(=O)[C@H](N)C(C)C)C(C)C)C(=O)N[C@@H](C)C(N)=O	580
CC[C@H](C)[C@@H](NC(=O)[C@@H](NC(=O)[C@H](CCC(=O)O)NC(=O)[C@H](Cc1ccccc1)NC(=O)[C@@H](CCN)NC(=O)[C@H](CCN)NC(=O)[C@H](CCN)NC(=O)[C@@H](Cc1c[nH]c2ccccc12)NC(=O)[C@@H](CO)NC(=O)CNC(=O)[C@@H](CCN)NC(=O)[C@H](N)C(C)C)C(C)C)C(=O)N[C@@H](C)C(=O)O	800
